- assayedTarget: furin, P09958;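 further: purified furin at 1:10 enzyme:substrate in 50 mM HEPES pH 7.5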
- Sequence (P09958 whole entry): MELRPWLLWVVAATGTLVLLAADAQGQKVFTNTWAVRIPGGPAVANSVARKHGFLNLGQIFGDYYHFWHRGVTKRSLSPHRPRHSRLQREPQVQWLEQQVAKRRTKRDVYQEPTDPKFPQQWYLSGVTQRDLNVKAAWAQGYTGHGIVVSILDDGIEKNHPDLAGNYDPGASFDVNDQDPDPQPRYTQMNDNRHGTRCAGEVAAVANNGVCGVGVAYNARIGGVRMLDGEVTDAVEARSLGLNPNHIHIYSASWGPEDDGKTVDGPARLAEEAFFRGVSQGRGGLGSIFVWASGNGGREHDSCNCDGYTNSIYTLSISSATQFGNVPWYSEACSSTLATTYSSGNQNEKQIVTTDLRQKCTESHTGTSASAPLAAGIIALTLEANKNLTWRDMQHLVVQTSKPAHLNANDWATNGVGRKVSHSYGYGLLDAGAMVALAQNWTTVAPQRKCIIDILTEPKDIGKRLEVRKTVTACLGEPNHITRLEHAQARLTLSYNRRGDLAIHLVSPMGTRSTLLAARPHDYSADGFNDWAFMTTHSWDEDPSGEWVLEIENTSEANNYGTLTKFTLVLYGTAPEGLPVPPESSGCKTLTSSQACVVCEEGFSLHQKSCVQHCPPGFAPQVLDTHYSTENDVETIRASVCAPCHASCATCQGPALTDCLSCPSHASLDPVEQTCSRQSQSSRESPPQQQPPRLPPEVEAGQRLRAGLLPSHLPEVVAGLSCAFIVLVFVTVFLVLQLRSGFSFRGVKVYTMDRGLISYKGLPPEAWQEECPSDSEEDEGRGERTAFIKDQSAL
- testSummary: furin cleavage Z-score vs untreated control; higher = more cleavage, active = 3.5 or more, inactive = 1 or less, 8 variable residues between constant flanks
- studyConditions: 15 min
This is one part of the list. How many sequences the whole screen found active is unknown.
measuredEndpoint: furin cleavage Z-score

INSERT INTO measurements (inputsequence, measuredendpoint, number) VALUES
  ('CARQKRSINLAGNASASA [FS-2587]', 'furin cleavage Z-score', 6.9),
  ('CAEVQCHRPSAGNASASA [HC2362]', 'furin cleavage Z-score', 1.46),
  ('CATDNSSPPVAGNASASA [HC766]', 'furin cleavage Z-score', 0.102),
  ('CAPLEVIKGGAGNASASA [HC851]', 'furin cleavage Z-score', 0.444),
  ('CARVNRSVHEAGNASASA [FS-2244]', 'furin cleavage Z-score', 3.34),
  ('CAFVGAGLAGAGNASASA [HC1075]', 'furin cleavage Z-score', -0.739),
  ('CAEVPCHAPSAGNASASA [HC2363]', 'furin cleavage Z-score', 1.02),
  ('CARNRRLVSDAGNASASA [FS-3012]', 'furin cleavage Z-score', 3.37),
  ('CAMSGEVPSTAGNASASA [HC1095]', 'furin cleavage Z-score', -0.846),
  ('CATLSTALAEAGNASASA [HC1330]', 'furin cleavage Z-score', -1.49),
  ('CARLSRGTRPAGNASASA [FS-1748]', 'furin cleavage Z-score', 0.607),
  ('CAIRMYVGGVAGNASASA [HC475]', 'furin cleavage Z-score', -1.17),
  ('CALTTSQTLLAGNASASA [HC1061]', 'furin cleavage Z-score', 0.0331),
  ('CASTPCSAHEAGNASASA [HC2572]', 'furin cleavage Z-score', -0.151),
  ('CAGGGGGGGGAGNASASA [NE1]', 'furin cleavage Z-score', 0.409);
